system name: T1, ヒト組織因子(TF)(ヒト膀胱癌細胞J82上に発現) (human, UniProt P13726 33-295)
T1 construct: whole, on cells; Target of the cell ELISA; also called ヒトTF; 抗原
protocol text: cell ELISA on fixed J82 cells
experimental endpoint: binding result

>>> observed_value("H鎖キメラ/L鎖ヒト型化バージョンb1抗体 (antibody, V domains shown, Human IgG4 kappa (vector N5KG4P); also called ch-b1) VH: EVQLQQSGTNLVRPGALVKLSCKGSGFNIKDYYMHWVKQRPEQGLEWIGGNDPANGHSMYDPKFQGKASITADTSSNTAYLQLSSLTSEDTAVYFCARDSGYAMDYWGQGTSVTVSS VL: DIQMTQSPSSLSASVGDRVTITCKASQDIKSFLSWFQQKPGKSPKTLIYYATSLADGVPSRFSGSGSGTDYTLTISSLQPEDFATYYCLQHGESPYTFGGGTKVEIK")
"binds"
>>> observed_value("H鎖ヒト型化バージョンb/L鎖ヒト型化バージョンa抗体 (antibody, V domains shown, Human IgG4 kappa (vector N5KG4P); also called b-a) VH: QVQLLESGAVLARPGTSVKISCKASGFNIKDYYMHWVKQRPGQGLEWIGGNDPANGHSMYDPKFQGRVTITADTSTNTAYMELSSLRSEDTAIYYCARDSGYAMDYWGQGTLVTVSS VL: DIQMTQSPSSLSASVGDRVTITCKASQDIKSFLSWYQQKPGKAPKLLIYYATSLADGVPSRFSGSGSGTDFTLTISSLQPEDFATYYCLQHGESPYTFGGGTKVEIK")
"binds"
>>> observed_value("H鎖ヒト型化バージョンb/L鎖ヒト型化バージョンc抗体 (antibody, V domains shown, the construction of its expression plasmid is not described; also called b-c) VH: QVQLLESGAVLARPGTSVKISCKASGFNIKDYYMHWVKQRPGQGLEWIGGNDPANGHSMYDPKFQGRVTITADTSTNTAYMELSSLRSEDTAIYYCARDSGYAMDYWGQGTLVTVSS VL: DIQMTQSPSSLSASVGDRVTITCKASQDIKSFLSWYQQKPGKAPKLLIYYATSLADGVPSRFSGSGSGTDYTLTISSLQPEDIATYYCLQHGESPYTFGGGTKVEIK")
"binds"
